Ref: the supplement of paper PMC7600603

# Tested on: DLD1 NRF2-WT
# EXPERIMENT_SUMMARY: drug sensitivity score (DSS) cytotoxicity (DSS score); higher = more toxic; extreme values may be limits of the assay
# EXPERIMENTAL_PARAMETERS: 72 h; CellTox Green cytotoxicity
Would you mind telling me the reported drug sensitivity score of each entry?

# count of solved cases: 7
| CHEMICAL_STRING | TESTED_SYSTEM | ASSAY_VALUE |
| --- | --- | --- |
| CC(C)(O)CNc1nc(Nc2ccnc(C(F)(F)F)c2)nc(-c2cccc(C(F)(F)F)n2)n1 | DLD1 NRF2-WT | 0 |
| O=c1ncn2nc(Sc3ccc(F)cc3F)ccc2c1-c1c(Cl)cccc1Cl | DLD1 NRF2-WT | 0 |
| CCc1nc(C(N)=O)c(Nc2ccc(N3CCC(N4CCN(C)CC4)CC3)c(OC)c2)nc1NC1CCOCC1 | DLD1 NRF2-WT | 0 |
| COc1cc(NS(C)(=O)=O)ccc1Nc1c2ccccc2nc2ccccc12 | DLD1 NRF2-WT | 0.7 |
| CS(=O)(=O)N1CCN(Cc2cc3nc(-c4cccc5[nH]ncc45)nc(N4CCOCC4)c3s2)CC1 | DLD1 NRF2-WT | 0.1 |
| CCCCCCCCCCCCCCCCOP(=O)([O-])OCC[N+](C)(C)C | DLD1 NRF2-WT | 11 |
| O=C(Nc1cccc(NC(=O)c2cccc(O)c2O)c1)c1cccc(O)c1O | DLD1 NRF2-WT | 0 |

Query compound follows.
// field: drug sensitivity score; key: `Cc1ccc(NS(=O)(=O)c2cccc(C#N)c2)c2[nH]cc(C#N)c12` ; value = 0
